Hey, just so you know, these numbers are from paper PMC12645435.

# Target: CtNDT (Chroococcidiopsis thermalis, UniProt K9TVX3, A9S/Y7F)
# Construct: homotetramer; residues 111 and 118 of the neighbouring subunit complete the site; expression host and tags only in supplement
# Sequence (K9TVX3 entry or part of it Y7F/A9S): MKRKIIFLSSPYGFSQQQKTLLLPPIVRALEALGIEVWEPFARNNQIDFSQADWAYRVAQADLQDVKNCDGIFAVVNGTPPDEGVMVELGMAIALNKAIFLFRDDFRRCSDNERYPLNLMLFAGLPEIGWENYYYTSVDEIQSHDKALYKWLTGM
# Assay comment: binding assay (details in supplement)
Quantity name: Kd

In [3]: df
Out[3]:
                                   compound  quantity_name  reported_value
0  O=c1[nH]cnc2c([C@@H]3N[C@H](CO)[C@@H](O)[C@H]3O)c[nH]c12 [Immucillin-H]             Kd          590 µM
